# Tested on: D54 LucT luciferase reporter counterscreen, luminescence, 24 h
# Method description: reporter signal increase, D54 LucT cells – cell-based, luminescence, cherry pick, counter-screen for N-linked glycosylation inhibitor project, dose response (AID 624404)
Records with an inconclusive call do not appear.
Reported endpoint: AC35

compound Cn1c(=O)[nH]c(=O)c2c1nc(N1CCN(Cc3ccccc3)CC1)n2CCCc1ccccc1 , AC35 observed: 465 nM

compound COc1ccc(Nc2oc(-c3ccc(Cl)cc3)nc2C#N)cc1 , AC35 observed: 202 nM

compound N#Cc1c(N)n(CCc2ccc(F)cc2)c2nc3ccccc3nc12 , AC35 observed: 1880 nM

compound O=C(Nc1ccccc1O)c1ccc(NS(=O)(=O)c2cccc3cccnc23)cc1 , AC35 observed: 4410 nM

compound Cc1nnc2c3ccccc3c(-c3cccs3)nn12 , AC35 observed: 312 nM

compound CCOc1ccc(Nc2nc(N(C)c3ccccc3)nc(N)c2[N+](=O)[O-])cc1 , AC35 observed: 128 nM

compound CC(=O)Nc1ccc2cc3ccc(NC(C)=O)cc3nc2c1 , AC35 observed: 838 nM

compound O=C(Nc1ccccc1)N(CCN1CCOCC1)Cc1ccccc1F , AC35 observed: 2370 nM

compound COc1cccc(C(N)c2nc(-c3csc4ccccc34)cs2)c1 (stereo unspecified) , AC35 observed: 4880 nM

compound O=C(Nc1cccc2ncccc12)c1ccc([N+](=O)[O-])o1 , AC35 observed: 4570 nM

compound CCn1c2ccccc2c2cc(/C=N/NC(=O)c3ccc(O)cc3)ccc21 , AC35 observed: 4490 nM
